Just for reference, ChEMBL document CHEMBL1139452 is where these values come from.

Tested on: Rattus norvegicus
method: Antagonistic effect against AVP-induced hypertension in rats after intravenous administration
Type: functional
reported-conditions: read-out: ID50 (the source's name)
measured-attribute: ED50

molecule: CN1CCN(CCCCOc2cc(C(=O)N3CCCCc4sccc43)ccc2NC(=O)c2ccccc2-c2ccccc2)CC1
measured-attribute: ED50
result: < 0.01 mg/kg
--
molecule: O=C(Nc1ccc(C(=O)N2CCCN(Cc3ccccc3)c3sccc32)cc1)c1ccccc1-c1ccccc1
measured-attribute: ED50
result: > 0.3 mg/kg
--
molecule: CN1CCN(CCN2CCCN(C(=O)c3ccc(NC(=O)c4ccccc4-c4ccccc4)cc3)c3ccsc32)CC1
measured-attribute: ED50
result: > 0.3 mg/kg
--
molecule: COc1cc(C(=O)N2CCCC(N(C)C)c3sccc32)ccc1NC(=O)c1ccccc1-c1ccccc1 (stereo not given)
measured-attribute: ED50
result: > 0.3 mg/kg
--
molecule: O=C(Nc1ccc(C(=O)N2CCCN(CCN3CCCC3)c3sccc32)cc1)c1ccccc1-c1ccccc1
measured-attribute: ED50
result: > 0.3 mg/kg
